Attribution: the supplement of paper PMC10567573

- methodDescription: protein stability index of a GFP-peptide fusion (GPS, HEK-293T) (PSI 1-6); higher = more stable;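 further: 24-mer peptide tiles fused after GFP, lentivirally expressed, FACS-sorted into six equal bins by GFP/DsRed ratio, decoded by Illumina sequencing, PSI is the read-weighted mean bin number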
- runConditions: treatment: MLN4924 1 uM, 8 h; c terminus: a fixed tail appended
Outcome label depends on protein stability index relative to 3: at/above gives y, below gives n.

Decide: protein stability index of STVQILTEGFPPGGGNARATGMFL [ZFYVE21] >= 3? n

What about this sequence? GDMNHEWIGNEWLPSLGLPQYRSY [PPFIA4] n

What about this sequence? VMFKIGDLGHVTRISSPQVEEGDS [WEE1] y

What about this sequence? SAAGHLKVVQSLLNHGASVNNTTL [FEM1C] y

What about this sequence? LSLIARFSPIAIDGMSGLAGVGLS [ELAVL3] n

What about this sequence? GPLPVKRGPPPRSGGPPPKRSAPS [RBMX] y

What about this sequence? SAGEQKTERMDKVGDALEEVLSKA [GADD45A] y

What about this sequence? VFRWLAYSYASTHRLMTDARRRVC [CPXM2] n

What about this sequence? LKGAFPARLKKVLIVGAPIWFRVP [PTPN9] n

What about this sequence? PCATVSVFPGARLLTIGDANGEIQ [CARM1] y

What about this sequence? DTTTPTTSAITASRSESPPPLSDP [BRD3] y

What about this sequence? RWALLSCRGKKPSRIYGQAMAIIN [KLHDC10] n

====

- methodDescription: protein stability index of a GFP-peptide fusion (GPS, HEK-293T) (PSI 1-6); higher = more stable
- runConditions: treatment: DMSO; c terminus: a fixed tail appended
endpointLabel: protein stability index
Give your answer as a number; write no unit.

Entry under review: PAVPEEILKRLLKEQHLWDVDLLD [DLC1] . Reported protein stability index? 2.97

What about this sequence? THTKEQILELVVLEQFVAILPKEL [ZNF24] 3.04

What about this sequence? LENELDLKLVSFSKLCTSYSHSST [GOSR1] 2.98

====

- methodDescription: protein stability index of a GFP-peptide fusion (GPS, HEK-293T) (PSI 1-6); higher = more stable
- runConditions: treatment: DMSO; c terminus: a fixed tail appended
endpointLabel: protein stability index
Give your answer as a number; write no unit.

Entry under review: LTSDLYAPMVAGALARLGTVTVIS [SLC25A39] . Reported protein stability index? 2.92

What about this sequence? DFLEEVEEIVFNLTNNVDLDNTKK [MNAT1] 3.03

What about this sequence? FRPVSETCTDRSGISTGHWSGEVK [FUT8] 3.79

What about this sequence? QEELQIQAAVAAGDVHTVRKMLEQ [ASB7] 5

What about this sequence? EWVISTGHDKCVSWMCTRSGNMLG [WDFY1] 2.09

What about this sequence? HMFTPKLDKMLDPQVWREAATQVF [SLC6A17] 2.11

What about this sequence? TKNKSKHALRKKQLKRQKRDYIHS [FAM9B] 3.71

What about this sequence? LPVGTQLLTVTATDRDEGANGEVT [PCDHGA10] 5.32

What about this sequence? PNDEHWKALSRKSTSFRVYIMAFD [FBXO33] 2.11

What about this sequence? LPILTWPVLQSRTGLVYDQNMMNH [HDAC6] 2.25

What about this sequence? EQPFIPVEVLVDLFLKEGACDELF [PRAME] 2.39

What about this sequence? ENVKDVPFGFQTVTSDVNKLSSFY [SERPINB5] 2.74

What about this sequence? KFKESFAEMNRGSNEWKTVVGGAM [COX4I1] 3

What about this sequence? GTNTVSFYTLSPNSHFSLNVKTLK [PCDHGC5] 2.4

What about this sequence? VSGINGDIRAKKIASIADVCESMK [HNF4A] 3.52

What about this sequence? VRRTDDTPVVLVGNKSDLKQLRQV [RIT1] 3.56

What about this sequence? EVSSIQVRRKPQHGVCSQLLGNYR [SERPINB9P1] 2.84

What about this sequence? TPGLGVVAVLLLFLVVREPPRGAV [SPNS1] 2.69

What about this sequence? AGNDDSFGSLPSPKELSSFSFSMK [DLC1] 3.75

What about this sequence? EMLGRKCLTLATAVVQLYLALPPG [WAS] 3.02

What about this sequence? WDPSPRGCFTLPRSEPIRPIDPAA [DVL3] 3.98

What about this sequence? SKKLRAILPKQSRKSMLDAGPDSW [LCOR] 2.71

What about this sequence? SSASEGDEDLRRQMQDDEQKTRLL [PALM] 5.51

What about this sequence? IDLSAWCYYCQAYVHHQALLDVKN [HDAC6] 2.73

What about this sequence? VASLPLDQSDEGSSSQKEESPSTL [MAGEA10] 5.65

What about this sequence? LCIHTGRELRCKVFPIKHYQDKIR [TRIB1] 2.27

What about this sequence? VNDNAPEVLLASLANPVLESTPVG [PCDHGC5] 4.55

What about this sequence? GPLPVKRGPPPRSGGPPPKRSAPS [RBMX] 4.49

What about this sequence? MGSLSSRVLRQPRPALAQQAQGAR [GMCL1] 4.46
